Origin of the recorded values: the supplement of paper PMC10307832

System: BEN
Assay Text: relative viability (nuclei count vs DMSO), 5 days (fraction); higher = more cells survive
Conditions Used: first compound 0.005 µM
Metric Name: relative viability

-- ask Which relative viability value belongs to Nc1ccn([C@@H]2O[C@H](CO)[C@@H](O)[C@@H]2O)c(=O)n1 [Cytarabine] + CC1(C)CCC(c2ccc(Cl)cc2)=C(CN2CCN(c3ccc(C(=O)NS(=O)(=O)c4ccc(N[C@H](CCN5CCOCC5)CSc5ccccc5)c(S(=O)(=O)C(F)(F)F)c4)cc3)CC2)C1 [Navitoclax] (partner 0.5 µM) ?
-- reply 0.059

-- ask Which relative viability value belongs to COc1cc2nccc(Oc3ccc(NC(=O)Nc4cc(C)on4)c(Cl)c3)c2cc1OC [Tivozanib] + C[C@]1(O)C[C@@H](c2nc(-c3ccc4ccc(-c5ccccc5)nc4c3)c3c(N)nccn32)C1 [Linsitinib] (partner 1 µM) ?
-- reply 0.995

-- ask Which relative viability value belongs to Nc1ccn([C@@H]2O[C@H](CO)[C@@H](O)[C@@H]2O)c(=O)n1 [Cytarabine] + Cc1cc(Nc2cc(N3CCN(C)CC3)nc(Sc3ccc(NC(=O)C4CC4)cc3)n2)n[nH]1 [Tozasertib] (partner 0.1 µM) ?
-- reply 0.427

-- ask Which relative viability value belongs to Nc1ccn([C@@H]2O[C@H](CO)[C@@H](O)[C@@H]2O)c(=O)n1 [Cytarabine] + NC(=O)Nc1cc(-c2cccc(F)c2)sc1C(=O)N[C@H]1CCCNC1 [AZD7762] (partner 0.2 µM) ?
-- reply 0.588

-- ask Which relative viability value belongs to COc1cc2nccc(Oc3ccc(NC(=O)Nc4cc(C)on4)c(Cl)c3)c2cc1OC [Tivozanib] + CS(=O)(=O)CCNCc1ccc(-c2ccc3ncnc(Nc4ccc(OCc5cccc(F)c5)c(Cl)c4)c3c2)o1 [Lapatinib] (partner 2 µM) ?
-- reply 0.476

-- ask Which relative viability value belongs to COc1cc2nccc(Oc3ccc(NC(=O)Nc4cc(C)on4)c(Cl)c3)c2cc1OC [Tivozanib] + NC(=O)Nc1cc(-c2cccc(F)c2)sc1C(=O)N[C@H]1CCCNC1 [AZD7762] (partner 0.2 µM) ?
-- reply 0.6

---

Tested on: BEN
Assay Text: relative viability (nuclei count vs DMSO), 5 days (fraction); higher = more cells survive
Conditions Used: first compound 500 µM
Metric Name: relative viability
Please give only the number in your answer, with no unit.

-- ask Which relative viability value belongs to O=C(O)CCCCC(CCSCc1ccccc1)SCc1ccccc1 (configuration not stated) [CPI-613] + CC(=O)Nc1cccc(-n2c(=O)n(C3CC3)c(=O)c3c(Nc4ccc(I)cc4F)n(C)c(=O)c(C)c32)c1 [Trametinib] (partner 0.02 µM) ?
-- reply 0.905

-- ask Which relative viability value belongs to O=C(O)CCCCC(CCSCc1ccccc1)SCc1ccccc1 (configuration not stated) [CPI-613] + CC1(C)CCC(c2ccc(Cl)cc2)=C(CN2CCN(c3ccc(C(=O)NS(=O)(=O)c4ccc(N[C@H](CCN5CCOCC5)CSc5ccccc5)c(S(=O)(=O)C(F)(F)F)c4)cc3)CC2)C1 [Navitoclax] (partner 0.5 µM) ?
-- reply 0.0516

---

Test system: NCI-H1734
Assay Text: relative viability (nuclei count vs DMSO), 5 days (fraction); higher = more cells survive
Conditions Used: first compound 0.005 µM
Exercise: for every item that follows, state its recorded relative viability.
Please give only the number in your answer, with no unit.

-- ask Which relative viability value belongs to Nc1ccn([C@@H]2O[C@H](CO)[C@@H](O)[C@@H]2O)c(=O)n1 [Cytarabine] + CC1(C)CCC(c2ccc(Cl)cc2)=C(CN2CCN(c3ccc(C(=O)NS(=O)(=O)c4ccc(N[C@H](CCN5CCOCC5)CSc5ccccc5)c(S(=O)(=O)C(F)(F)F)c4)cc3)CC2)C1 [Navitoclax] (partner 0.5 µM) ?
-- reply 0.418

-- ask Which relative viability value belongs to Nc1ccn([C@@H]2O[C@H](CO)[C@@H](O)[C@@H]2O)c(=O)n1 [Cytarabine] + COc1cccc2cc(-c3nc([C@H]4CC[C@H](C(=O)O)CC4)n4ncnc(N)c34)[nH]c12 [OSI-027] (partner 0.5 µM) ?
-- reply 0.355

---

System: NCI-H647
Assay Text: relative viability (nuclei count vs DMSO), 5 days (fraction); higher = more cells survive
Conditions Used: first compound 0.1581 µM
relative viability vs 0.3: less than gives true; not less than gives false.

-- ask Item Nc1ccn([C@@H]2O[C@H](CO)[C@@H](O)[C@@H]2O)c(=O)n1 [Cytarabine] + CCNC(=O)c1noc(-c2cc(C(C)C)c(O)cc2O)c1-c1ccc(CN2CCOCC2)cc1 [Luminespib] (partner 0.01 µM) : relative viability beneath 0.3, strictly?
-- reply true

-- ask Item Nc1ccn([C@@H]2O[C@H](CO)[C@@H](O)[C@@H]2O)c(=O)n1 [Cytarabine] + CC(C)C[C@H](NC(=O)[C@H](Cc1ccccc1)NC(=O)c1cnccn1)B(O)O [Bortezomib] (partner 0.002 µM) : relative viability beneath 0.3, strictly?
-- reply true

-- ask Item COc1cc2nccc(Oc3ccc(NC(=O)Nc4cc(C)on4)c(Cl)c3)c2cc1OC [Tivozanib] + O=C(CCCCCCC(=O)Nc1ccccc1)NO [Vorinostat] (partner 1 µM) : relative viability beneath 0.3, strictly?
-- reply false

-- ask Item Nc1ccn([C@@H]2O[C@H](CO)[C@@H](O)[C@@H]2O)c(=O)n1 [Cytarabine] + NC(=O)Nc1cc(-c2cccc(F)c2)sc1C(=O)N[C@H]1CCCNC1 [AZD7762] (partner 0.2 µM) : relative viability beneath 0.3, strictly?
-- reply true

-- ask Item COc1cc2nccc(Oc3ccc(NC(=O)Nc4cc(C)on4)c(Cl)c3)c2cc1OC [Tivozanib] + CC(C)C[C@H](NC(=O)[C@H](Cc1ccccc1)NC(=O)c1cnccn1)B(O)O [Bortezomib] (partner 0.002 µM) : relative viability beneath 0.3, strictly?
-- reply false

-- ask Item COc1cc2nccc(Oc3ccc(NC(=O)Nc4cc(C)on4)c(Cl)c3)c2cc1OC [Tivozanib] + C[C@@H](Oc1cc(-c2cnn(C3CCNCC3)c2)cnc1N)c1c(Cl)ccc(F)c1Cl [Crizotinib] (partner 1 µM) : relative viability beneath 0.3, strictly?
-- reply false

-- ask Item COc1cc2nccc(Oc3ccc(NC(=O)Nc4cc(C)on4)c(Cl)c3)c2cc1OC [Tivozanib] + Nc1ncn([C@H]2C[C@H](O)[C@@H](CO)O2)c(=O)n1 [Decitabine] (partner 2 µM) : relative viability beneath 0.3, strictly?
-- reply false

-- ask Item COc1cc2nccc(Oc3ccc(NC(=O)Nc4cc(C)on4)c(Cl)c3)c2cc1OC [Tivozanib] + Cc1nc(NC(=O)N2CCC[C@H]2C(N)=O)sc1-c1ccnc(C(C)(C)C(F)(F)F)c1 [Alpelisib] (partner 2 µM) : relative viability beneath 0.3, strictly?
-- reply false

-- ask Item Nc1ccn([C@@H]2O[C@H](CO)[C@@H](O)[C@@H]2O)c(=O)n1 [Cytarabine] + Cc1nc(NC(=O)N2CCC[C@H]2C(N)=O)sc1-c1ccnc(C(C)(C)C(F)(F)F)c1 [Alpelisib] (partner 2 µM) : relative viability beneath 0.3, strictly?
-- reply true

-- ask Item Nc1ccn([C@@H]2O[C@H](CO)[C@@H](O)[C@@H]2O)c(=O)n1 [Cytarabine] + O=C(CCCCCCC(=O)Nc1ccccc1)NO [Vorinostat] (partner 1 µM) : relative viability beneath 0.3, strictly?
-- reply true

-- ask Item Nc1ccn([C@@H]2O[C@H](CO)[C@@H](O)[C@@H]2O)c(=O)n1 [Cytarabine] + CC(=O)c1c(C)c2cnc(Nc3ccc(N4CCNCC4)cn3)nc2n(C2CCCC2)c1=O [Palbociclib] (partner 0.5 µM) : relative viability beneath 0.3, strictly?
-- reply true

-- ask Item Nc1ccn([C@@H]2O[C@H](CO)[C@@H](O)[C@@H]2O)c(=O)n1 [Cytarabine] + COc1cccc2cc(-c3nc([C@H]4CC[C@H](C(=O)O)CC4)n4ncnc(N)c34)[nH]c12 [OSI-027] (partner 0.5 µM) : relative viability beneath 0.3, strictly?
-- reply true

-- ask Item COc1cc2nccc(Oc3ccc(NC(=O)Nc4cc(C)on4)c(Cl)c3)c2cc1OC [Tivozanib] + CCNC(=O)c1noc(-c2cc(C(C)C)c(O)cc2O)c1-c1ccc(CN2CCOCC2)cc1 [Luminespib] (partner 0.01 µM) : relative viability beneath 0.3, strictly?
-- reply true

-- ask Item COc1cc2nccc(Oc3ccc(NC(=O)Nc4cc(C)on4)c(Cl)c3)c2cc1OC [Tivozanib] + CS(=O)(=O)CCNCc1ccc(-c2ccc3ncnc(Nc4ccc(OCc5cccc(F)c5)c(Cl)c4)c3c2)o1 [Lapatinib] (partner 2 µM) : relative viability beneath 0.3, strictly?
-- reply false

---

System: UMC-11
Assay Text: relative viability (nuclei count vs DMSO), 5 days (fraction); higher = more cells survive
Conditions Used: first compound 0.1581 µM
Metric Name: relative viability
Please give only the number in your answer, with no unit.

-- ask Which relative viability value belongs to Nc1ccn([C@@H]2O[C@H](CO)[C@@H](O)[C@@H]2O)c(=O)n1 [Cytarabine] + C[C@@H](Oc1cc(-c2cnn(C3CCNCC3)c2)cnc1N)c1c(Cl)ccc(F)c1Cl [Crizotinib] (partner 1 µM) ?
-- reply 0.267

-- ask Which relative viability value belongs to COc1cc2nccc(Oc3ccc(NC(=O)Nc4cc(C)on4)c(Cl)c3)c2cc1OC [Tivozanib] + O=C(c1cc(Cc2n[nH]c(=O)c3ccccc23)ccc1F)N1CCN(C(=O)C2CC2)CC1 [Olaparib] (partner 8 µM) ?
-- reply 0.33

-- ask Which relative viability value belongs to Nc1ccn([C@@H]2O[C@H](CO)[C@@H](O)[C@@H]2O)c(=O)n1 [Cytarabine] + CC(C)C[C@H](NC(=O)[C@H](Cc1ccccc1)NC(=O)c1cnccn1)B(O)O [Bortezomib] (partner 0.002 µM) ?
-- reply 0.155
